experiment: Stability of lyophilized powder of aminothiol (WR-1065) at 25° C./60% RH under argon; assay type: physicochemical; conditions: T15d-25° C./60% RH, under argon atm.
MEASURED ENDPOINT: Amifostine (%)
Give your result in % as a bare value.

Input: Could you share which Amifostine value was measured for NCCCNCCS [WR-1065•2HCl native, 2-[(3-aminopropyl)amino]ethanethiol] ?
Output: 0

###

Assay: Stability of lyophilized powder of aminothiol (WR-1065) at 25° C./60% RH under argon
Format: physicochemical
Settings: T15d-25° C./60% RH, under argon atm.
Experimental: A stability study is performed to compare stability of: • WR-1065 obtained by conversion of amifostine (350 mg/ml or 500 mg/ml) in acidic condition (respectively HCl 1M or HCl 4M), diluted in water or in P407/P188 mixture and then lyophilized (based on examples described in parts A & B), and • WR-1065 hydrochloride salt crystalline powder. Stability is assessed by analysis of samples stored under argon atmosphere at 25° C./60% RH. […]
MEASURED ENDPOINT: Aminothiol (%)
Give your result in % as a bare value.

Input: Could you share which Aminothiol value was measured for NCCCNCCS [WR-1065•2HCl native, 2-[(3-aminopropyl)amino]ethanethiol] ?
Output: 99.6

###

assay: Stability of lyophilized powder of aminothiol (WR-1065) at 25° C./60% RH under argon; type: physicochemical; conditions: T1m-25° C./60% RH, under argon atm.
MEASURED ENDPOINT: Disulfides (%)
Give your result in % as a bare value.

Input: Could you share which Disulfides value was measured for NCCCNCCS [WR-1065•2HCl native, 2-[(3-aminopropyl)amino]ethanethiol] ?
Output: 0.5

###

experiment: Stability of lyophilized powder of aminothiol (WR-1065) at 25° C./60% RH under argon; type: physicochemical; details: T0, under argon atm.
MEASURED ENDPOINT: Disulfides (%)
Give your result in % as a bare value.

Input: Could you share which Disulfides value was measured for NCCCNCCS [WR-1065•2HCl native, 2-[(3-aminopropyl)amino]ethanethiol] ?
Output: 0.3

###

assay: Stability of lyophilized powder of aminothiol (WR-1065) at 25° C./60% RH under argon; assay type: physicochemical; conditions: T0, under argon atm.
MEASURED ENDPOINT: Aminothiol
Phrase the answer as number then unit, nothing more needed.

Input: Could you share which Aminothiol value was measured for NCCCNCCS [WR-1065•2HCl native, 2-[(3-aminopropyl)amino]ethanethiol] ?
Output: 99.7%

###

experiment: Stability of lyophilized powder of aminothiol (WR-1065) at 25° C./60% RH under argon; type: physicochemical; conditions: T1m-25° C./60% RH, under argon atm.
MEASURED ENDPOINT: Amifostine (%)
Give your result in % as a bare value.

Input: Could you share which Amifostine value was measured for NCCCNCCS [WR-1065•2HCl native, 2-[(3-aminopropyl)amino]ethanethiol] ?
Output: 0

The origin of these recorded values is patent US11021442B2.
